Assign log10 Ki to each entry below.
TARGET: UniProt:Q9UKP6
Sequence (Q9UKP6 whole entry): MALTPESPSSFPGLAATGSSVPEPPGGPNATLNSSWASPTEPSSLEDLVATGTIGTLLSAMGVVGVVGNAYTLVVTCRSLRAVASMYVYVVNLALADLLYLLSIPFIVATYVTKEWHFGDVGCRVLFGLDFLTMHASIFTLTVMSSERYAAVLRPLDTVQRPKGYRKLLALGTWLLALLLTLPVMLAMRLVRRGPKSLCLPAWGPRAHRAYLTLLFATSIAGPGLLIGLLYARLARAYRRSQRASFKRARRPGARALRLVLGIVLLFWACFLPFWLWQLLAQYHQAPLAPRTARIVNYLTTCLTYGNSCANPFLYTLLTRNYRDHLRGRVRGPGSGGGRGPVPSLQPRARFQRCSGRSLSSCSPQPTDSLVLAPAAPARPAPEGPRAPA
MEASUREMENT NOTES: hUTII inhibition constant
Assay type: binding
ASSAY SETUP: read-out: hUTII Ki
Bridge positions count the residues as written; N and C are the ends. Square brackets hold non-standard residues; d marks the D form. Peptide text beside a SMILES is read from it. * marks the point of attachment. X1 = CCCN1C[C@H](CSCC(=O)*)C[C@@H]2c3cccc4[nH]cc(c34)C[C@H]21; Abu = CC[C@H](N)C(=O)O
// do not treat as linear: log10 of Ki, unit nM

Below, each entry is followed by its recorded log10 Ki result.
CC[C@@H]1NC(=O)[C@H](CCCCN)NC(=O)[C@@H](Cc2c[nH]c3ccccc23)NC(=O)[C@H](Cc2ccc(O)cc2)NC(=O)[C@@H](NC(=O)[C@@H](Cc2ccccc2)NC(=O)[C@@H](N)Cc2ccc(O)c(O)c2)CSSC[C@@H](C(=O)N[C@H](C(N)=O)[C@@H](C)O)NC1=O | 3.35
CCCN1C[C@H](CSCC(=O)NCCOCCOCC(=O)N[C@H](Cc2ccccc2)C(=O)N[C@H]2CSSC[C@@H](C(=O)N[C@H](C(N)=O)[C@@H](C)O)NC(=O)[C@H](CC)NC(=O)[C@H](CCCCN)NC(=O)[C@@H](Cc3c[nH]c4ccccc34)NC(=O)[C@H](Cc3ccc(O)cc3)NC2=O)C[C@@H]2c3cccc4[nH]cc(c34)C[C@H]21 | 2.22
CCCN1C[C@H](CSCC(=O)NCCCC[C@H](NC(=O)CSC[C@@H]2C[C@@H]3c4cccc5[nH]cc(c45)C[C@H]3N(CCC)C2)C(=O)N[C@H](Cc2ccc(O)cc2)C(=O)N[C@H](Cc2ccc(O)cc2)C(=O)N[C@H]2CSSC[C@@H](C(=O)N[C@H](C(N)=O)[C@@H](C)O)NC(=O)[C@H](CC)NC(=O)[C@H](CCCCN)NC(=O)[C@@H](Cc3c[nH]c4ccccc34)NC(=O)[C@H](Cc3ccc(O)cc3)NC2=O)C[C@@H]2c3cccc4[nH]cc(c34)C[C@H]21 [Example 10] (X1-K(X1)[dY][dY]CY[dW]K[Abu]CT-NH2; disulfide 4-9) | 2.25
CC[C@@H]1NC(=O)[C@H](CCCCN)NC(=O)[C@@H](Cc2c[nH]c3ccccc23)NC(=O)[C@H](Cc2ccc(O)cc2)NC(=O)[C@@H](NC(=O)[C@@H](Cc2ccccc2)NC(=O)COCCOCCNC(=O)COCCOCCNC(=O)CSC[C@@H]2C[C@@H]3c4cccc5[nH]cc(c45)C[C@H]3N(C)C2)CSSC[C@@H](C(=O)N[C@H](C(N)=O)[C@@H](C)O)NC1=O | 2.71
CC[C@@H]1NC(=O)[C@H](CCCCN)NC(=O)[C@@H](Cc2c[nH]c3ccccc23)NC(=O)[C@H](Cc2ccc(O)cc2)NC(=O)[C@@H](NC(=O)[C@@H](Cc2ccccc2)NC(=O)CSC[C@@H]2C[C@@H]3c4cccc5[nH]cc(c45)C[C@H]3N(C)C2)CSSC[C@@H](C(=O)N[C@H](C(N)=O)[C@@H](C)O)NC1=O | 2.79

Now turn to the next compound.
Query CCCN1C[C@H](CSCC(=O)N[C@@H](CCCCN)C(=O)N[C@H](Cc2ccc(O)cc2)C(=O)N[C@H](Cc2ccc(O)cc2)C(=O)N[C@H]2CSSC[C@@H](C(=O)N[C@H](C(N)=O)[C@@H](C)O)NC(=O)[C@H](CC)NC(=O)[C@H](CCCCN)NC(=O)[C@@H](Cc3c[nH]c4ccccc34)NC(=O)[C@H](Cc3ccc(O)cc3)NC2=O)C[C@@H]2c3cccc4[nH]cc(c34)C[C@H]21 [Example 35] (X1-K[dY][dY]CY[dW]K[Abu]CT-NH2; disulfide 4-9) yields log10 Ki of 2.13
